testedOn: human natriuretic peptide receptor B (NPR-B) (human) (UniProt P20594)
Sequence (P20594 23-1047): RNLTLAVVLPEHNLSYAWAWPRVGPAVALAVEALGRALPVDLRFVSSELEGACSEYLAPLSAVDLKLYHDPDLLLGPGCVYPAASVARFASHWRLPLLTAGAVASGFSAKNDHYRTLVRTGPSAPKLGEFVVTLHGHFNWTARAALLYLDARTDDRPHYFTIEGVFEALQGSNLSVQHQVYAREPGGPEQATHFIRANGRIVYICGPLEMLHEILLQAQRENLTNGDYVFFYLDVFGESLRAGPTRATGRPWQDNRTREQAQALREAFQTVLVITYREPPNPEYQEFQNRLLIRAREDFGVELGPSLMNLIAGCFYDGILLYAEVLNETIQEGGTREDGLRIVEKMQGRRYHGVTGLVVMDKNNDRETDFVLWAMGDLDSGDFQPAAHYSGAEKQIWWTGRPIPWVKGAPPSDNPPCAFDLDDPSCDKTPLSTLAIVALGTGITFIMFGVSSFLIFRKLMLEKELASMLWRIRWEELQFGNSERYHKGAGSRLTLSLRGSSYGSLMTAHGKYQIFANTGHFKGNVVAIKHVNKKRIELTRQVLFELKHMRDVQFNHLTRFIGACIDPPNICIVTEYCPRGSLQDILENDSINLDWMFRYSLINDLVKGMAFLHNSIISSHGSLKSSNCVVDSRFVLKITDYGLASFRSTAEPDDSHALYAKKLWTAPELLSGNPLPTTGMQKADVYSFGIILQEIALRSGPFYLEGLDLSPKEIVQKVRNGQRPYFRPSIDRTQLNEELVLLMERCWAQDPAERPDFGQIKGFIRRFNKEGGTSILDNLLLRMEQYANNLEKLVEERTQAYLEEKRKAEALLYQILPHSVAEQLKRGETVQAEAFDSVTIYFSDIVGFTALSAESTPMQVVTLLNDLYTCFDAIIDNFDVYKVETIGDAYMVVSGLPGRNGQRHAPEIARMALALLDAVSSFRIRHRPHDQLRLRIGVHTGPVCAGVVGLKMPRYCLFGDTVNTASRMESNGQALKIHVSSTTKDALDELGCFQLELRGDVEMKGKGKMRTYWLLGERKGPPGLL
measurementDescription: cell-based or functional assay
Ends that are not written are not given here.
Quick list: Approximate fold gain in selectivity versus CDNP (NPR-B over NPR-A) per entry.
Field: numeric (fold). Do not append units.

GLSKGCFGLKLDRIGSMSGLGCPSSAAPRPNAPSTSA (ends and bridges not checked; cysteine pairing not given here) [CDNP-S3A4A5]; 14.9

Now consider the entry below.
Asked: For the binder GLSKGCFGLKLDRIGSMSGLGCPSLADPRPNAPSTSA (ends and bridges not checked; cysteine pairing not given here) [CDNP-A4] , give its reported Approximate fold gain in selectivity versus CDNP (NPR-B over NPR-A).
Given back: 17.8
